# System: HIV-1-93IN101
# protocol-description: P24 assay (viral p24 ELISA)
# Type: cell-based
# conditions-used: Cell line Supt-1; Virus HIV-1-93IN101
recorded-metric: Therapeutic Index (TI): CC50/IC50

- compound: "CC1(O)[C@@H](CO)OC(n2cnc3c(NC4CC4)ncnc32)[C@]1(C)F (stereo partly shown) [Example 16]"
  recorded-metric: "Therapeutic Index (TI): CC50/IC50"
  reading: 1.4
- compound: "C[C@]1(F)C(n2cnc3c(N)ncnc32)O[C@H](CO)[C@]1(C)O (stereo partly shown) [Example 2A]"
  recorded-metric: "Therapeutic Index (TI): CC50/IC50"
  reading: ">1"
- compound: "C[C@]1(F)[C@H](n2ccc(N)nc2=O)O[C@H](CO)[C@@]1(C)O [Example 23]"
  recorded-metric: "Therapeutic Index (TI): CC50/IC50"
  reading: ">1"
- compound: "C[C@]1(F)[C@H](n2ccc(=O)[nH]c2=O)O[C@H](CO)[C@@]1(C)O [Example 22]"
  recorded-metric: "Therapeutic Index (TI): CC50/IC50"
  reading: ">1"

Data origin, for the record: patent US8227431B2
